Experimental Target: T1, Cbx7.V1 E38K back-mutant (human, UniProt O95931 7-66, E8D (printed as the back-mutation D8E) | Q9D | V10I (printed as the …))
T1 construct: chromodomain of human Cbx7, UniProt O95931; Cbx7.V1 with residue 38 back to the wild type; source: E. coli BL21(DE3), purified (Ni-NTA)
T1 sequence: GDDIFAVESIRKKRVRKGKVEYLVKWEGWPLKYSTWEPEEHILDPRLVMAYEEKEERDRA
Run Description: BLI; biotinylated peptides immobilised on streptavidin biosensor tips (Octet HTX); chromodomains in solution at 5 or 1 µM; 25 °C; 25 mM HEPES pH 7.0, 150 mM NaCl, 1 mg/ml BSA, 0.01% Tween-20; steady-state fit, Langmuir model
Condition Details: both partners purified
pKd: −log10 of the molar value.

>  <Binder>
KQLATKAARKSAPATGGVK (trimethyl-lysine at K27; biotin followed by an aminohexanoic acid linker at the N-terminus) [H3K27me3 peptide, N-terminal biotin]

>  <pKd>
5.82

$$$$
>  <Binder>
ARTKQTARKSTGGKAPR (trimethyl-lysine at K9; biotin followed by an aminohexanoic acid linker at the N-terminus) [H3K9me3 peptide, N-terminal biotin]

>  <pKd>
5.70

$$$$
